Cited source for all entries: paper PMC9273165

- System: A549 (non-small cell lung) human cancer cell line
- testDetails: resazurin-based cytotoxicity assay, A549
- Assay type: cell-based
- assayContext: A549 (non-small cell lung), 72 h incubation, mean ± SD of triplicate wells
Let's look at some compounds and their measured IC50.

{"compound": "O=Cc1c(N2CCCC2)c2ccccc2oc1=O [Compound 5a, 4-Pyrrolidino-3-formyl-2H-chromen-2-one]", "testedSystem": "A549 (non-small cell lung) human cancer cell line", "IC50": "> 80 µM"}
{"compound": "COC(=O)/C(C#N)=C/c1c(NCC2CCNCC2)c2ccccc2oc1=O [Compound 4e]", "testedSystem": "A549 (non-small cell lung) human cancer cell line", "IC50": "12.9 µM"}
{"compound": "N#CC(C#N)=C(N)/C(C#N)=C/c1c(N2CCCCC2)c2ccccc2oc1=O [Compound 8b]", "testedSystem": "A549 (non-small cell lung) human cancer cell line", "IC50": "> 80 µM"}
{"compound": "N#CC(C#N)=Cc1c(NCC2CCNCC2)c2ccccc2oc1=O [Compound 8e]", "testedSystem": "A549 (non-small cell lung) human cancer cell line", "IC50": "> 50 µM"}
{"compound": "COC(=O)/C(C#N)=C/c1c(N2CCOCC2)c2ccccc2oc1=O [Compound 4d]", "testedSystem": "A549 (non-small cell lung) human cancer cell line", "IC50": "> 80 µM"}
{"compound": "O=Cc1c(N2CCOCC2)c2ccccc2oc1=O [Compound 5d, 4-Morpholino-3-formyl-2H-chromen-2-one]", "testedSystem": "A549 (non-small cell lung) human cancer cell line", "IC50": "> 50 µM"}
{"compound": "O=c1oc2ccccc2c(NCC2CCNCC2)c1[N+](=O)[O-] [Compound 9e]", "testedSystem": "A549 (non-small cell lung) human cancer cell line", "IC50": "> 80 µM"}
{"compound": "O=Cc1c(NCC2CCNCC2)c2ccccc2oc1=O [Compound 5e]", "testedSystem": "A549 (non-small cell lung) human cancer cell line", "IC50": "> 80 µM"}
{"compound": "N#CC(C#N)=Cc1c(N2CCOCC2)c2ccccc2oc1=O [Compound 8d]", "testedSystem": "A549 (non-small cell lung) human cancer cell line", "IC50": "> 80 µM"}
